- ASSAYED_TARGET: panel of more than 300 wild-type and mutant kinases (313 kinase panel) (Homo sapiens)
- PROCEDURE_DETAILS: Kinase profiling in a biochemical assay panel (mobility shift assays and ELISA), %-inhibition at 1 μM; selectivity entropy
- CONDITION_INFO: kinase AMPKα1/β1/γ1; 1 μM compound
EXPERIMENTAL_ENDPOINT: %-inhibition, AMPKα1/β1/γ1 (%)
# value in %; strip the unit string

>  <COMPOUND>
C[C@@H](Oc1cc(-c2cnn(C3CCNCC3)c2)cnc1N)c1c(Cl)ccc(F)c1Cl

>  <ASSAYED_TARGET>
panel of more than 300 wild-type and mutant kinases (313 kinase panel) (Homo sapiens)

>  <EXPERIMENTAL_ENDPOINT>
%-inhibition, AMPKα1/β1/γ1

>  <UNIT_INFO>
%

>  <RESULT>
16

$$$$
>  <COMPOUND>
N#CC[C@H](C1CCCC1)n1cc(-c2ncnc3[nH]ccc23)cn1

>  <ASSAYED_TARGET>
panel of more than 300 wild-type and mutant kinases (313 kinase panel) (Homo sapiens)

>  <EXPERIMENTAL_ENDPOINT>
%-inhibition, AMPKα1/β1/γ1

>  <UNIT_INFO>
%

>  <RESULT>
2.17

$$$$
>  <COMPOUND>
COc1cc2nccc(Oc3ccc(NC(=O)C4(C(=O)Nc5ccc(F)cc5)CC4)cc3)c2cc1OC [cabozantinib]

>  <ASSAYED_TARGET>
panel of more than 300 wild-type and mutant kinases (313 kinase panel) (Homo sapiens)

>  <EXPERIMENTAL_ENDPOINT>
%-inhibition, AMPKα1/β1/γ1

>  <UNIT_INFO>
%

>  <RESULT>
-1

$$$$
>  <COMPOUND>
CC(=O)Nc1cccc(-n2c(=O)n(C3CC3)c(=O)c3c(Nc4ccc(I)cc4F)n(C)c(=O)c(C)c32)c1

>  <ASSAYED_TARGET>
panel of more than 300 wild-type and mutant kinases (313 kinase panel) (Homo sapiens)

>  <EXPERIMENTAL_ENDPOINT>
%-inhibition, AMPKα1/β1/γ1

>  <UNIT_INFO>
%

>  <RESULT>
-12

$$$$
>  <COMPOUND>
CO[C@H]1C[C@@H]2CC[C@@H](C)[C@@](O)(O2)C(=O)C(=O)N2CCCC[C@H]2C(=O)O[C@H]([C@H](C)C[C@@H]2CC[C@@H](OCCO)[C@H](OC)C2)CC(=O)[C@H](C)/C=C(\C)[C@@H](O)[C@@H](OC)C(=O)[C@H](C)C[C@H](C)/C=C/C=C/C=C/1C

>  <ASSAYED_TARGET>
panel of more than 300 wild-type and mutant kinases (313 kinase panel) (Homo sapiens)

>  <EXPERIMENTAL_ENDPOINT>
%-inhibition, AMPKα1/β1/γ1

>  <UNIT_INFO>
%

>  <RESULT>
-6

$$$$

// query %-inhibition, AMPKα1/β1/γ1 value for entry CCCS(=O)(=O)Nc1ccc(F)c(C(=O)c2c[nH]c3ncc(-c4ccc(Cl)cc4)cc23)c1F
-1.59

Then this compound: Cc1ccc(C(=O)Nc2ccc(CN3CCN(C)CC3)c(C(F)(F)F)c2)cc1C#Cc1cnc2cccnn12
46

---

Below, each entry is listed alongside its reported IC50.
- Test system: forty-four human cancer cell lines
- PROCEDURE_DETAILS: Cell proliferation assay (ATPlite, 72 hours) in the 44 cell line Oncolines panel
- Type: cell-based
- CONDITION_INFO: Homo sapiens, ACHN, read-out: cell panel IC50, ACHN
# value in µM; strip the unit string

>  <COMPOUND>
Cc1nc(Nc2ncc(C(=O)Nc3c(C)cccc3Cl)s2)cc(N2CCN(CCO)CC2)n1

>  <IC50 / µM>
0.048

$$$$
>  <COMPOUND>
COc1cc2nccc(Oc3ccc(NC(=O)C4(C(=O)Nc5ccc(F)cc5)CC4)cc3)c2cc1OC [cabozantinib]

>  <IC50 / µM>
20.9

$$$$
>  <COMPOUND>
CNC(=O)c1cc(Oc2ccc(NC(=O)Nc3ccc(Cl)c(C(F)(F)F)c3)cc2)ccn1

>  <IC50 / µM>
17.5

$$$$

Now, please, on to the next compound.
// query IC50 value for entry Cc1cn(-c2cc(NC(=O)c3ccc(C)c(Nc4nccc(-c5cccnc5)n4)c3)cc(C(F)(F)F)c2)cn1
12.3

---

- ASSAYED_TARGET: panel of more than 300 wild-type and mutant kinases (313 kinase panel) (Homo sapiens, UniProt P00533, L861Q)
- Sequence (P00533 25-1210 L861Q): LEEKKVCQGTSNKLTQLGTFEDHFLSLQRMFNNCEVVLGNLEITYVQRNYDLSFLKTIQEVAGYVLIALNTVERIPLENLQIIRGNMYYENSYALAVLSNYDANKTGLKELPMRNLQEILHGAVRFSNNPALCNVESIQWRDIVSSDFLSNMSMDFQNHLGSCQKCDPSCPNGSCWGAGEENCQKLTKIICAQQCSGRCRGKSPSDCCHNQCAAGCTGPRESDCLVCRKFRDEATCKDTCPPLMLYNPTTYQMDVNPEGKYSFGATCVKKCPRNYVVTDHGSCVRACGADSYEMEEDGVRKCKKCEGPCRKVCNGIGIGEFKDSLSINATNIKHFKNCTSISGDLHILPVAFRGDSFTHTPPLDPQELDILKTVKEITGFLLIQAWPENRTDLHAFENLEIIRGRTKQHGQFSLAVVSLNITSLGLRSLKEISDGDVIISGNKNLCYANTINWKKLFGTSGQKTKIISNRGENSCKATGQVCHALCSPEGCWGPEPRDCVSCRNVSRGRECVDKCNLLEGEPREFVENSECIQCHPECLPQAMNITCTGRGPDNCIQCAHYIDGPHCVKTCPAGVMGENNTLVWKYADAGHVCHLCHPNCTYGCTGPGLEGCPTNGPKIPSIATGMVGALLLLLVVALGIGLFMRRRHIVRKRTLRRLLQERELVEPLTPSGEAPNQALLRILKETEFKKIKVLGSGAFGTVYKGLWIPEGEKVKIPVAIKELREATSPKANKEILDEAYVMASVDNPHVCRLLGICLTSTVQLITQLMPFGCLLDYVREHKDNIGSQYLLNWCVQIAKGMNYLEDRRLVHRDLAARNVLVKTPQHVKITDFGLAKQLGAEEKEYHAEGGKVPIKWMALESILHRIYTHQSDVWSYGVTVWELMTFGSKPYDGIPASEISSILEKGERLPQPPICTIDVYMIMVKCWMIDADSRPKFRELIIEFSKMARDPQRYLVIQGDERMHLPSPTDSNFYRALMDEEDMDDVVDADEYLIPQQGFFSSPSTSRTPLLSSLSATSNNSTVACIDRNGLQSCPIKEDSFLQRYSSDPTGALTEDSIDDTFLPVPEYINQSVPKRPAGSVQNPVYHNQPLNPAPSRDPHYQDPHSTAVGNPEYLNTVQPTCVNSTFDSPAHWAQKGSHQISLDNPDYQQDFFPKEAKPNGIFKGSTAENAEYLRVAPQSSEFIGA
- PROCEDURE_DETAILS: Kinase profiling in a biochemical assay panel (mobility shift assays and ELISA), %-inhibition at 1 μM; selectivity entropy
- CONDITION_INFO: kinase EGFR(L861Q); compound at 1 μM
Below, each entry is listed alongside its reported %-inhibition of EGFR(L861Q).
# value in %; strip the unit string

Solved cases below.
>  <MOLECULE>
N#CC[C@H](C1CCCC1)n1cc(-c2ncnc3[nH]ccc23)cn1

>  <%-inhibition of EGFR(L861Q) [%]>
-3.22

$$$$
>  <MOLECULE>
Cc1ccc(Nc2nccc(N(C)c3ccc4c(C)n(C)nc4c3)n2)cc1S(N)(=O)=O

>  <%-inhibition of EGFR(L861Q) [%]>
13

$$$$
>  <MOLECULE>
COc1cc2nccc(Oc3ccc(NC(=O)C4(C(=O)Nc5ccc(F)cc5)CC4)cc3)c2cc1OC [cabozantinib]

>  <%-inhibition of EGFR(L861Q) [%]>
46

$$$$
>  <MOLECULE>
CCCS(=O)(=O)Nc1ccc(F)c(C(=O)c2c[nH]c3ncc(-c4ccc(Cl)cc4)cc23)c1F

>  <%-inhibition of EGFR(L861Q) [%]>
5

$$$$
>  <MOLECULE>
Cc1cn(-c2cc(NC(=O)c3ccc(C)c(Nc4nccc(-c5cccnc5)n4)c3)cc(C(F)(F)F)c2)cn1

>  <%-inhibition of EGFR(L861Q) [%]>
11

$$$$

Now, please, on to the next molecule.
// query %-inhibition of EGFR(L861Q) value for entry CNC(=O)c1cc(Oc2ccc(NC(=O)Nc3ccc(Cl)c(C(F)(F)F)c3)c(F)c2)ccn1
6

---

- ASSAYED_TARGET: panel of more than 300 wild-type and mutant kinases (313 kinase panel) (Homo sapiens)
- PROCEDURE_DETAILS: Kinase profiling in a biochemical assay panel (mobility shift assays and ELISA), %-inhibition at 1 μM; selectivity entropy
- CONDITION_INFO: kinase CDK7/CycH/MAT1; 1 μM compound
EXPERIMENTAL_ENDPOINT: %-inhibition, CDK7/CycH/MAT1
A bare number is not enough; add the unit after it.

>  <CHEMICAL_STRING>
CNC(=O)c1cc(Oc2ccc(NC(=O)Nc3ccc(Cl)c(C(F)(F)F)c3)c(F)c2)ccn1

>  <%-inhibition, CDK7/CycH/MAT1>
-3%

$$$$
>  <CHEMICAL_STRING>
Cc1ccc(Nc2nccc(N(C)c3ccc4c(C)n(C)nc4c3)n2)cc1S(N)(=O)=O

>  <%-inhibition, CDK7/CycH/MAT1>
9%

$$$$
>  <CHEMICAL_STRING>
COc1cc2c(Nc3ccc(Br)cc3F)ncnc2cc1OCC1CCN(C)CC1

>  <%-inhibition, CDK7/CycH/MAT1>
-4.26%

$$$$

Now, please, on to the next molecule.
// query %-inhibition, CDK7/CycH/MAT1 value for entry Cc1ccc(C(=O)Nc2ccc(CN3CCN(C)CC3)c(C(F)(F)F)c2)cc1C#Cc1cnc2cccnn12
9%

---

- ASSAYED_TARGET: panel of more than 300 wild-type and mutant kinases (313 kinase panel) (Homo sapiens, UniProt P31751)
- Sequence (P31751 whole entry, change not shown): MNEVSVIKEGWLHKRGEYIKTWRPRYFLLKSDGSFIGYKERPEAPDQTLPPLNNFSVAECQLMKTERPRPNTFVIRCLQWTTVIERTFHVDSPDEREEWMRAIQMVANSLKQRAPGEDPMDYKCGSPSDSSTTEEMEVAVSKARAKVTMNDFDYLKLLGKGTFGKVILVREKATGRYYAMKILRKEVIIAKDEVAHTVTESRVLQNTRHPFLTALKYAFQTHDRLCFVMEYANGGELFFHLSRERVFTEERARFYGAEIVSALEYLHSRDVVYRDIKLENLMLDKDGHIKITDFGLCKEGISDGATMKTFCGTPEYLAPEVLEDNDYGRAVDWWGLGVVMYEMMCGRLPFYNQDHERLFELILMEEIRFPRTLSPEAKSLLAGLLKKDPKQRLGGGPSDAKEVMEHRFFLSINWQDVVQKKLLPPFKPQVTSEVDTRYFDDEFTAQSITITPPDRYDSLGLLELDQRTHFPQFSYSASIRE
- PROCEDURE_DETAILS: Kinase profiling in a biochemical assay panel (mobility shift assays and ELISA), %-inhibition at 1 μM; selectivity entropy
- CONDITION_INFO: kinase AKT2; 1 μM compound
Below, each entry is listed alongside its reported %-inhibition, AKT2.
# value in %; strip the unit string

>  <COMPOUND>
O=S(=O)(c1cccc2cnccc12)N1CCCNCC1

>  <EXPERIMENTAL_ENDPOINT>
%-inhibition, AKT2

>  <UNIT_INFO>
%

>  <RESULT>
-8

$$$$

// query %-inhibition, AKT2 value for entry CCCS(=O)(=O)Nc1ccc(F)c(C(=O)c2c[nH]c3ncc(-c4ccc(Cl)cc4)cc23)c1F
-3

Then this compound: CO[C@H]1C[C@@H]2CC[C@@H](C)[C@@](O)(O2)C(=O)C(=O)N2CCCC[C@H]2C(=O)O[C@H]([C@H](C)C[C@@H]2CC[C@@H](OCCO)[C@H](OC)C2)CC(=O)[C@H](C)/C=C(\C)[C@@H](O)[C@@H](OC)C(=O)[C@H](C)C[C@H](C)/C=C/C=C/C=C/1C
-3.78

Then this compound: COc1cc2c(Nc3ccc(Br)cc3F)ncnc2cc1OCC1CCN(C)CC1
-1.77

Then this compound: COc1cc2nccc(Oc3ccc(NC(=O)C4(C(=O)Nc5ccc(F)cc5)CC4)cc3)c2cc1OC [cabozantinib]
-3.78

Then this compound: Cc1cn(-c2cc(NC(=O)c3ccc(C)c(Nc4nccc(-c5cccnc5)n4)c3)cc(C(F)(F)F)c2)cn1
12

Then this compound: C[C@@H](Oc1cc(-c2cnn(C3CCNCC3)c2)cnc1N)c1c(Cl)ccc(F)c1Cl
-2.67
